target: EPHB2 (UniProt P29323); assay: phosphorylation enrichment, bacterial display (enrichment ratio); higher = better substrate or ligand; peptides without Tyr show the background;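 also: 11-residue human phosphosite peptides and single-mutation variants displayed on the E. coli surface, counted by deep sequencing, each peptide's frequency after selection divided by its frequency in the unselected input library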;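 also: frequency after pTyr selection over input frequency; kinase dosed for 20-30% of maximal phosphorylation in three min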
Sequence (P29323 whole entry, looked up): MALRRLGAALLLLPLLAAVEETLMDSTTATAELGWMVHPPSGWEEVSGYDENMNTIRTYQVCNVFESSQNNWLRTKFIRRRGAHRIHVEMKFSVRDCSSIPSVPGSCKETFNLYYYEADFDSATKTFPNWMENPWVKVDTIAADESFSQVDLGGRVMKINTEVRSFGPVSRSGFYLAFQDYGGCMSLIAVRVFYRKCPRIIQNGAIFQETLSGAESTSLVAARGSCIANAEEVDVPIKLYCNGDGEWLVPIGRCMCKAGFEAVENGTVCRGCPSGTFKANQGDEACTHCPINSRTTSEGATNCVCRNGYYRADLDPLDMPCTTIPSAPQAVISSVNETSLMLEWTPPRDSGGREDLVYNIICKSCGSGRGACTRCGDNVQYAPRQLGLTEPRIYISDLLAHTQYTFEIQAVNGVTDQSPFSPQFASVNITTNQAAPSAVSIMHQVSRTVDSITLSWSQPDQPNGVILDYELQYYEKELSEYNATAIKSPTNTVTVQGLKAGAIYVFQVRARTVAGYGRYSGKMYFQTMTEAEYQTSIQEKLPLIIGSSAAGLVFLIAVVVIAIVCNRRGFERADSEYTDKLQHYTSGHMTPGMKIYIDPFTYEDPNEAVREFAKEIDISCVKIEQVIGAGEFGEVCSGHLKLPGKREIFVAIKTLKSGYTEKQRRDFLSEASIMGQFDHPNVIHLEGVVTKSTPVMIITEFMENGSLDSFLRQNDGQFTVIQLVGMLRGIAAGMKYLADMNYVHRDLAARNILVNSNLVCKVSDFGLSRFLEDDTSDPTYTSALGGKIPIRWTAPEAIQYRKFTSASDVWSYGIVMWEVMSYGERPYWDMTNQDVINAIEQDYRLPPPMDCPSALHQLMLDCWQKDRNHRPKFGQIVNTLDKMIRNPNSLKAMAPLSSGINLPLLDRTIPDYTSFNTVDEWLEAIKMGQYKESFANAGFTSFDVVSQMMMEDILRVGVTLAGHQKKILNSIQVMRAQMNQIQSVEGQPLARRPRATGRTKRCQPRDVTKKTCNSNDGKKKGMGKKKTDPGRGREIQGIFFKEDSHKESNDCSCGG
Listed sequences paired with reported phosphorylation enrichment

| BIOPOLYMER_SEQUENCE | phosphorylation enrichment |
| --- | --- |
| KPLMPCMRYSR [SMARCE1_Y73_Y73C] | 0.535 |
| HNLFSYPTKFE [MYO3A_Y1396_H1400Y_YF] | 0.507 |
| RQNQEYEILLD [KRT39_Y379] | 1.21 |
| VDDEIYFFRKP [PBRM1_Y1289_YF] | 0.635 |
| SVVVPYEPLEV [TP53_Y220_P223L] | 0.602 |
| FECKWYIPLTD [BCR_Y756_D752E_YF] | 0.723 |
| EFQLPYFNMVP [BMPR1A_Y457_YF] | 0.46 |
| YRIDHYLGKEM [G6PD_Y202] | 0.627 |
| RFVTRHIFNRE [HLA-DQB1_Y62_Y62H_YF] | 0.314 |
| GHLYAYDWIRI [BEST1_Y227_S231R] | 2.42 |
| NAMRRHIEEFQ [MNS1_Y244_Y244H] | 0.411 |
| AHARMYGVLPW [PLP1_Y207_D203H] | 0.462 |
| PVKAAYQKVVA [HBB_Y131_Q128K] | 0.491 |
| SDGHEYIFVDR [PDGFRB_Y579_P584R_YF] | 0.448 |
| MSSHHCDYKKY [ZNF445_Y428_Y428C] | 0.385 |
| ISDNACQFMLT [MYH7_Y162_Y162C_YF] | 0.615 |
| RAILDYIASKF [GSTA3_Y74_N73D_YF] | 0.445 |
| YRASYYRKGGC [ALK_Y1283] | 0.435 |
| EQKKYYNATKK [SCN5A_Y1495_M1498T] | 0.383 |

---

target: MERTK (UniProt Q12866); experiment: phosphorylation enrichment, bacterial display (enrichment ratio); higher = better substrate or ligand; peptides without Tyr show the background
Sequence (Q12866 whole entry, looked up): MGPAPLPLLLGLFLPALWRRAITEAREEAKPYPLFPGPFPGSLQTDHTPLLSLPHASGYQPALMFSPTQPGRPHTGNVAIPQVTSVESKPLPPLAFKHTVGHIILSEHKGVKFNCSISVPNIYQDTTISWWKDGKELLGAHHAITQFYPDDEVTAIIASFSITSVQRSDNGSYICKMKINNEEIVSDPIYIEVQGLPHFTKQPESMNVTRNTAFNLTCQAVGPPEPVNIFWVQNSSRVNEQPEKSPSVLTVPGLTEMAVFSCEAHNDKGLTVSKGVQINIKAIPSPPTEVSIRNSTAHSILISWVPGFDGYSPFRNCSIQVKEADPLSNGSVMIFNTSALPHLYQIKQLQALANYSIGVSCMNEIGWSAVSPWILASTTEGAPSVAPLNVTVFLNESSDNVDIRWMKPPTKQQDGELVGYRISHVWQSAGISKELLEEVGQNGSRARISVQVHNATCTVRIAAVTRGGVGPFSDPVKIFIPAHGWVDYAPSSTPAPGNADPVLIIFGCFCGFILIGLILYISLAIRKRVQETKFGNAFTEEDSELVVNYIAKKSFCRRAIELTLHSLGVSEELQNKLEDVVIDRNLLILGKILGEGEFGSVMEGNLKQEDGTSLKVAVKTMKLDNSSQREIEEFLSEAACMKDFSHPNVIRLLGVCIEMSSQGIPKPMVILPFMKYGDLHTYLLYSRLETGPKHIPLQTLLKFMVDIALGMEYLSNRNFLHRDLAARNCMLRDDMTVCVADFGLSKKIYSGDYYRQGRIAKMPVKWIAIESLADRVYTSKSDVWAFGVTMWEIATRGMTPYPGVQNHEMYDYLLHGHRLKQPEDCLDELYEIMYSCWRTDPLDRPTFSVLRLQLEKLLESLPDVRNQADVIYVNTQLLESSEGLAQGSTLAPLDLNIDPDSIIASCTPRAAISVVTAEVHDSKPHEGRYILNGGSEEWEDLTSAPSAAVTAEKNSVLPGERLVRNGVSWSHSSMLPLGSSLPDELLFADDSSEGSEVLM

| BIOPOLYMER_SEQUENCE | phosphorylation enrichment |
| --- | --- |
| NYSKMYCNPDA [KNL1_Y489_A486S] | 0.414 |
| DAVCFYRMENA [NPHS2_Y195_I192V_YF] | 0.695 |
| DKTGEYPVPLT [ACADM_Y73_I78T] | 0.44 |
| NSNAAYEESHF [LRIF1_Y714_Q716E] | 0.385 |
| NKEPRYQEEPP [TJP2_Y479_D482E] | 0.501 |
| SFTDPYAQPSL [KMT2D_Y2378_P2382S_YF] | 0.429 |
| WDLPEYSYKDP [ITGA3_Y237_S235P] | 0.464 |
| TTICKYSTPME [GUCY2C_Y839] | 0.446 |
| ENELTYYCYKK [CD59_Y86_C89Y] | 1.36 |
| TNDRLYLRSLE [MTM1_Y71_Y68D] | 0.376 |
| KKLHEYNTQFQ [PIK3R1_Y452] | 0.348 |
| RPFVFYFSFLL [PTEN_Y177_R173P_YF] | 0.641 |
| LSAPWYLNRIS [HEXA_Y421] | 0.331 |
| FKDYFYCWNTS [AICDA_Y146_F151S] | 2.14 |
| NPSFNYEIVNR [DYNC1H1_Y3379_YF] | 0.387 |
| QDRTFYESVRT [SPEN_Y633_YF] | 1.04 |
| CKLCQYFLDHL [ATRX_Y1849_Y1847C_YF] | 0.49 |
| IRTDAYVWAMT [RPE65_Y89_R91W] | 0.413 |
| LEAFQYIGESQ [MSH2_Y856_E853A] | 0.479 |
| VMAVAYRLAEQ [HK1_Y461_T457M] | 0.46 |
| FECKWYIPLTD [BCR_Y756_D752E_YF] | 0.433 |

Source: the supplement of paper PMC10065799
